- Tested on: CWR22R
- Measurement Notes: Antiproliferative activity against human 22Rv1 cells assessed as cell growth inhibition
- Format: functional, cell-based
Listing of recorded pIC50 by entry.
Friendly reminder that pIC50 comes from taking -log10 of the concentration in mol/L.

| Smiles String | pIC50 |
| --- | --- |
| CCn1c(=O)/c(=C2\Sc3ccc(C)cc3N2C)s/c1=C\c1ccncc1Nc1ccccc1C | 6.32 |
| c1ccc(Nc2cccc(-c3nc4ccccc4s3)c2)nc1 | 4.89 |
| CCn1c(=O)/c(=C2\Sc3cc(F)ccc3N2C)s/c1=C\c1ccncc1Nc1ccccc1F | 6.82 |
| CCn1c(=O)/c(=C2\Sc3ccccc3N2C)s/c1=C\c1ccncc1Nc1ccccc1Cl | 6.34 |
| CCc1ccc2c(c1)S/C(=c1/s/c(=C\c3ccncc3Nc3ccccc3F)n(CC)c1=O)N2C | 5.92 |

Complete the entry with pIC50 for c1ccc(Nc2nc(-c3nc4ccccc4s3)cs2)nc1 5.49

Complete the entry with pIC50 for COc1ccc(Cl)c(Nc2cccc(-c3nc4ccccc4s3)c2)c1 5.68

Complete the entry with pIC50 for CCn1c(=O)/c(=C2\Sc3ccc(C)cc3N2C)s/c1=C\c1ccncc1Nc1ccccc1Cl 6.46

----------
- Tested on: CWR22R
- Measurement Notes: Antiproliferative activity against human 22Rv1 cells assessed as cell growth inhibition
- Type: functional, cell-based
Quantity Measured: IC50

| Smiles String | IC50 |
| --- | --- |
| CCn1c(=O)/c(=C2\Sc3ccccc3N2C)s/c1=C\c1ccncc1Nc1cc(F)ccc1F | 1.1 µM |
| CCn1c(=O)/c(=C2\Sc3cc(F)ccc3N2C)s/c1=C\c1ccncc1Nc1ccccc1C | 2.3 µM |
| CCn1c(=O)/c(=C2\Sc3ccccc3N2C)s/c1=C\c1ccncc1Nc1ccccc1C | 0.47 µM |
| CCn1c(=O)/c(=C2\Sc3ccc(C)cc3N2C)s/c1=C\c1ccncc1Nc1ccccc1F | 0.15 µM |
| CCn1c(=O)/c(=C2\Sc3ccc(OC)cc3N2C)s/c1=C\c1ccncc1Nc1ccccc1F | 0.19 µM |
| CCn1c(=O)/c(=C2\Sc3ccc(OC)cc3N2C)s/c1=C\c1ccncc1Nc1ccccc1C | 0.41 µM |

Complete the entry with IC50 for CCn1c(=O)/c(=C2\Sc3ccccc3N2C)s/c1=C\c1ccncc1Nc1cc(C)ccc1C 1.8 µM

Complete the entry with IC50 for CCn1c(=O)/c(=C2\Sc3cc(F)ccc3N2C)s/c1=C\c1ccncc1Nc1ccccc1Cl 0.49 µM

Complete the entry with IC50 for CCn1c(=O)/c(=C2\Sc3ccc(OC)cc3N2C)s/c1=C\c1ccncc1Nc1ccccc1Cl 0.5 µM

Complete the entry with IC50 for CCn1c(=O)/c(=C2\Sc3ccccc3N2C)s/c1=C\c1ccncc1Nc1ccccc1F 0.3 µM

Complete the entry with IC50 for c1ccc(Nc2nc(-c3nc4ccccc4s3)cs2)cc1 6.9 µM
